Origin of values: the supplement of paper PMC6555819

Tested on: PPARa:RXRa (NR concentration 270 nM, RXRa partner concentration 90 nM)
Assay: PBM binding z-score (relative to random genomic background probes); higher = stronger binding; sequences stand for … in GC…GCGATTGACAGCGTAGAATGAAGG
Outcome: t for PBM binding z-score of at least 2; f for anything lower.

Worked examples, 4 sequences total:
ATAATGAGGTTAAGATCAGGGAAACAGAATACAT :: t
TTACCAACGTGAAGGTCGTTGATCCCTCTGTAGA :: f
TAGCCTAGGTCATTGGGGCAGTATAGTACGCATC :: t
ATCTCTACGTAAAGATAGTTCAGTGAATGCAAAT :: f

As a next step, examine the sequence that follows.
query: Hello, I need to know if `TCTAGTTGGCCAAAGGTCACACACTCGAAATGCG` has measured PBM binding z-score not below 2. Thanks!
result: t
